measurementNotes: chemical genetic growth profiling, strain panel (AID 1159580);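 note: tested at 20 µM; growth read once vehicle control cultures reached saturation at 30 °C; 1 = growth at the plate median or of vehicle wells; lower values mean less growth of the strain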
testParameters: S. cerevisiae deletion strains, growth OD, locus YOR316C, strain cot1, hits give low values
In all, about 5,500 compounds went through this assay and about 2,000 (36%) were called active. About 18% were inconclusive and are not listed. The list shows a part of the results.
measurementType: normalized growth
Field format: numeric only.

Guide cases for normalized growth, answers given:
compound=O=C1c2ccccc2C(=O)C1c1ccccc1 experimentalresult=1.01
compound=Cc1cc(C(C)(C)C)c(O)c(C)c1CC1=NCCN1 experimentalresult=1

Challenge: Look up normalized growth: COc1ccc2c(c1OC)OC[C@@H](c1ccc(OC)c(OC)c1OC)C2
Response given: 1.01

Challenge: Requested field: normalized growth. Item: COc1cc(O)cc(OC)c1OC
Response given: 0.993

Challenge: So what's the measured normalized growth for this one? O=C(CCBr)N1CCN(C(=O)CCBr)CC1
Response given: 0.999
